Where do the numbers come from? From PubChem BioAssay (EPA / NIEHS).

test: ATG_DR4_LXR_CIS: Attagene CIS-FACTORIAL HepG2 Assay for human Liver X Receptor (LXR), DR4 submotif (AID 2282929); settings: HepG2 Attagene DR4 cis-reporter, mRNA transcription; actives raise or lower the signal
Calls of active or inactive are those of the source. The calls were made as follows: active = hit-call score of the fitted dose curve at least 0.9, where 1 is the maximum; inactive = score below 0.9.
Outcomes: t for active, f for inactive

# compound, category.label
rows = [
    ("Cc1oncc1C(=O)Nc1ccc(C(F)(F)F)cc1", "f"),
    ("C=C(C)C(=O)OCC(C)C", "f"),
    ("CCCCCCCCCCCCCCCC(=O)OCC", "f"),
    ("Cc1cccc(C(=O)O)c1", "f"),
    ("CCN(CCC#N)c1ccc(N=Nc2c(Cl)cc([N+](=O)[O-])cc2Cl)cc1", "f"),
    ("O=C1Nc2ccccc2C1(c1ccc(O)cc1)c1ccc(O)cc1", "t"),
    ("CC(=O)[C@H]1[C@H](C#N)C[C@H]2[C@@H]3CC=C4C[C@@H](O)CC[C@]4(C)[C@H]3CC[C@@]21C", "f"),
    ("O=C(O)c1cc(Cl)cc([N+](=O)[O-])c1Cl", "f"),
    ("CC1OC1C1CCC2(C)OC2C1 (stereo unspecified)", "f"),
    ("COc1c2ccoc2cc2oc(=O)ccc12", "f"),
    ("CC1=NC(C)OC1C (stereo unspecified)", "f"),
    ("c1ccc2c(c1)ccc1ncccc12", "f"),
    ("Cc1cc(C)c(C(=O)O)c(C)c1", "f"),
    ("CCOc1ccc(N)c([N+](=O)[O-])c1", "f"),
    ("O=C1OC(=O)c2cc(Oc3ccc4c(c3)C(=O)OC4=O)ccc21", "f"),
    ("CC(C)c1ccc2c(C(C)C)cc(C(C)C)c(S(=O)(=O)O)c2c1", "f"),
    ("COc1ccc([C@@H]2CC(=O)c3c(O)cc(O[C@@H]4O[C@H](CO[C@@H]5O[C@@H](C)[C@H](O)[C@@H](O)[C@H]5O)[C@@H](O)[C@H](O)[C@H]4O)cc3O2)cc1OC", "f"),
    ("O=P(O)(O)Oc1ccccc1", "f"),
    ("Cc1ccc([N+](=O)[O-])cc1S(=O)(=O)O", "f"),
    ("c1cc(N(CC2CO2)CC2CO2)ccc1OCC1CO1 (stereo unspecified)", "t"),
    ("CC(=O)OCC(C)OC(C)=O (stereo unspecified)", "f"),
    ("COc1cc(C)ccc1C(C)C", "f"),
    ("CC(C)C(=O)C(C)C", "f"),
    ("CCN(CC)c1ccc(C(=O)c2ccccc2C(=O)O)c(O)c1", "f"),
    ("CCCCCCCOC(=O)CCC", "f"),
    ("C=CC(C)(CCC=C(C)C)OC(=O)CC(C)C (stereo unspecified)", "t"),
]

* * *

target: human Retinoid X Receptor beta (RXRb), RXRB (gene 6257) (UniProt P28702); experiment: ATG_RXRb_TRANS: Attagene TRANS-FACTORIAL HepG2 Assay for human Retinoid X Receptor beta (RXRb) (AID 2283013)
Sequence (P28702 whole entry, looked up): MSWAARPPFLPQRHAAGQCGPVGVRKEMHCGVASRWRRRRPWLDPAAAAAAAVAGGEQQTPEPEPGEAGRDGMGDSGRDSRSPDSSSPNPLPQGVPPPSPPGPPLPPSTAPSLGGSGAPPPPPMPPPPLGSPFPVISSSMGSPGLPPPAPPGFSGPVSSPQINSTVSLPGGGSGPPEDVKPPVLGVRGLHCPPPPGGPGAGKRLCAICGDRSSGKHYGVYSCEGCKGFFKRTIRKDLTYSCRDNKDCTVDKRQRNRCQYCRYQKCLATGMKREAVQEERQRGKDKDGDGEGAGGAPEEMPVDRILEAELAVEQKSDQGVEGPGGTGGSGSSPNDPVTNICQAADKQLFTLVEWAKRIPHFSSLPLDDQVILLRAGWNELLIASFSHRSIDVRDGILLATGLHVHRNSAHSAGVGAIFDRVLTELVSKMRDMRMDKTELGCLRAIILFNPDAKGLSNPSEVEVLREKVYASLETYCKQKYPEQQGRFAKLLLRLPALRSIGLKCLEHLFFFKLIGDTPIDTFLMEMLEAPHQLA
Inconclusive results are not listed. Activity calls are given as the source filed them. How the source made its calls: active means hit-call score of the fitted dose curve at least 0.9, where 1 is the maximum; inconclusive means response in the unintended direction; inactive means score below 0.9.

# compound, AC50
data = [
    ("NCCCN1CCN(CCCN)CC1", "inactive"),
    ("Cc1cccc(C(=O)O)c1", "inactive"),
    ("CC(=O)C=CC1C(C)=CCC(C)C1(C)C (stereo not given)", "68.5 µM (active)"),
    ("CC(C)c1ccc2c(C(C)C)cc(C(C)C)c(S(=O)(=O)O)c2c1", "18.2 µM (active)"),
    ("CCCCCCCCCCCCCCCC[n+]1ccccc1", "inactive"),
    ("O=c1c2ccccc2nnn1CCl", "inactive"),
    ("CC(C)(Oc1ccc(C2CC2(Cl)Cl)cc1)C(=O)O (stereo not given)", "inactive"),
    ("CC(C)(C)c1ccc(N)cc1", "inactive"),
    ("C=C(C)[C@H]1CC=C(C)CC1", "inactive"),
    ("CC(C)CC(O)Cc1ccccc1 (stereo not given)", "inactive"),
    ("CCCCCCCCCCC=CC#N", "49.2 µM (active)"),
    ("Cc1cc(O)c(Cl)c(C)c1Cl", "inactive"),
    ("COCc1c(C(C)C)nc(C(C)C)c(/C=C/[C@@H](O)C[C@@H](O)CC(=O)O)c1-c1ccc(F)cc1", "inactive"),
    ("CC(C)C1=CC2=CC[C@@H]3[C@](C)(CCC[C@@]3(C)C(=O)O)[C@H]2CC1", "inactive"),
    ("Nc1ccc(N=Nc2ccccc2)c(N)n1", "inactive"),
]

* * *

read-out: Macrophage colony-stimulating factor (MCSF), CSF1 (gene 1435); experiment: BSK_LPS_MCSF: BioMAP Diversity Plus: LPS Assay for Macrophage colony-stimulating factor (MCSF) Biomarker Activity (AID 2283083); conditions: primary human HUVEC with PBMC; actives raise or lower the signal
The source made the active and inactive calls. How the source made its calls: active means hit-call score of the fitted dose curve at least 0.9, where 1 is the maximum; inactive means score below 0.9.
Outcomes: active, inactive

# compound, category.label
data = [
    ("C=CC=CC=CCCCCC", "inactive"),
    ("CCCCC/C=C\\C/C=C\\CCCCCCCC(=O)OC", "active"),
    ("O=C(Cl)c1cc(C(=O)Cl)cc(C(=O)Cl)c1", "active"),
    ("CC(C)C(=O)C(C)C", "inactive"),
    ("COc1ccc2nc(N)sc2c1", "inactive"),
    ("C=C[Si](OC(C)=O)(OC(C)=O)OC(C)=O", "inactive"),
    ("CCOc1nc(F)cc2nc(S(=O)(=O)Nc3c(Cl)cccc3C(=O)OC)nn12", "inactive"),
    ("C#CC1(O)CC[C@H]2[C@@H]3CCC4=CCCC[C@@H]4[C@H]3CC[C@@]21C (some centres undefined)", "active"),
    ("C/C=C\\C/C=C/CCCCCCCCOC(C)=O", "active"),
    ("O=c1c2ccccc2oc2ccccc12", "inactive"),
    ("CCCCC(CC)COC(=O)c1ccccc1O (centres undefined)", "inactive"),
    ("CO[Si](OC)(OC)c1ccccc1", "inactive"),
    ("CC1OC1C1CCC2(C)OC2C1 (centres undefined)", "inactive"),
    ("CCO[Si](CCCN=C=O)(OCC)OCC", "inactive"),
]

* * *

assay: ATG_M_06_TRANS: Attagene TRANS-FACTORIAL HepG2 Assay for M06 Transcription Factor (Internal Marker) (AID 2282983); conditions: HepG2 Attagene TRANS M06 internal marker reporter;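 also: reporter transcript level by RT-PCR then capillary electrophoresis fluorescence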
Inconclusive results are not listed. Calls of active or inactive are those of the source. Rule for the calls: active = hit-call score of the fitted dose curve at least 0.9, where 1 is the maximum; inconclusive = response in the unintended direction; inactive = score below 0.9.

# molecule, outcome
records = [
    ("c1cc(C(c2ccc(OCC3CO3)cc2)C(c2ccc(OCC3CO3)cc2)c2ccc(OCC3CO3)cc2)ccc1OCC1CO1 (centres undefined)", "inactive"),
    ("O=c1cc[nH]c(=S)[nH]1", "inactive"),
    ("CCOC(=O)NNc1nncc2ccccc12", "inactive"),
    ("[Cl][In]([Cl])[Cl]", "inactive"),
    ("CCOC(F)(F)C(F)(F)C(F)(F)C(F)(F)F", "inactive"),
    ("Cc1ccccc1C", "inactive"),
    ("COC(=O)c1c(C)cc(O)c(C)c1O", "inactive"),
    ("SCCc1cnccn1", "inactive"),
    ("CCN(CC)c1ccc(C(=O)c2ccccc2C(=O)O)c(O)c1", "inactive"),
    ("CCCCC(CC)CCC(CC(C)C)OS(=O)(=O)O (centres undefined)", "inactive"),
    ("O=C1CCC(=O)N1Cl", "inactive"),
    ("CCCCC(CC)COCC1CO1 (centres undefined)", "inactive"),
    ("O=C(O)CC(C(=O)O)C(CC(=O)O)C(=O)O (centres undefined)", "inactive"),
    ("C=C(C)[C@H]1CC=C(C)CC1", "inactive"),
]

* * *

Assay: ATG_NF_kB_CIS: Attagene CIS-FACTORIAL HepG2 Assay for human Nuclear Factor Kappa B (NF-kB) (AID 2282991)
Conditions: HepG2 Attagene cis-factorial NF-kB reporter mRNA; actives raise or lower the signal
Method: ATG_CIS is a cell-based, multiplexed-readout assay that uses HepG2, a human liver cell line, with measurements taken at 24 hours after chemical dosing in a 24-well plate.ATG_NF_kB_CIS is one of 52 assay component(s) measured or calculated from the ATG_CIS assay. […] This assay endpoint, ATG_NF_kB_CIS, was analyzed with bidirectional fitting relative to DMSO as the negative control and baseline of activity. […]
Active and inactive are the calls of the source. The calls were made as follows: active = hit-call score of the fitted dose curve at least 0.9, where 1 is the maximum; inactive = score below 0.9.
Outcomes: 1 (yes) = active, 0 (no) = inactive

# compound, category.label
rows = [
    ("O=C(Oc1ccccc1)c1ccc2ccccc2c1O", "1 (yes)"),
    ("CC(=O)OCc1ccco1", "0 (no)"),
    ("c1c[nH]cn1", "0 (no)"),
    ("S=C(NC1CCCCC1)NC1CCCCC1", "0 (no)"),
    ("COC(F)(F)C(F)(C(F)(F)F)C(F)(F)F", "0 (no)"),
    ("CC(C)(Oc1ccc(C2CC2(Cl)Cl)cc1)C(=O)O (stereo not drawn)", "0 (no)"),
    ("CCC(CO)CO", "0 (no)"),
    ("Cc1cccc(N(C)C(=S)Oc2ccc3ccccc3c2)c1", "0 (no)"),
]
